System: KG-1
Assay: Antiproliferative activity against human KG1 cells after 72 hrs by CCK-8 assay
Assay type: functional, cell-based
Conditions: KG-1, 72 h
Catalogue of IC50 values

molecule: COc1cc(CCc2cc(NC(=O)c3ccc(N4C[C@@H](C)N[C@@H](C)C4)cc3)n[nH]2)cc(OC)c1
IC50: < 0.2 nM
--
molecule: COCCN1CCN(c2ccc(C(=O)Nc3n[nH]c4nc(-c5c(Cl)c(OC)cc(OC)c5Cl)ccc34)cc2)CC1
IC50: < 0.2 nM

---

Catalogue of Cmax values
Test: Cmax in ICR mouse at 12.5 mg/kg administered as oral gavage by LC-MS/MS analysis
Type: ADME, organism-based
Design: dose 12.5 mg/kg, route oral
Conditions: in vivo

molecule: COc1cc(OC)c(Cl)c(-c2ccc3c(NC(=O)c4ccc(N5CCN(CCO)CC5)cc4)n[nH]c3n2)c1Cl
measure.unit: ng/mL
Cmax: 802

molecule: COc1cc(CCc2cc(NC(=O)c3ccc(N4C[C@@H](C)N[C@@H](C)C4)cc3)n[nH]2)cc(OC)c1
measure.unit: ng/mL
Cmax: 1350

molecule: COc1cc(OC)c(Cl)c(-c2ccc3c(NC(=O)c4ccc(N5CCCN(C)CC5)cc4)n[nH]c3n2)c1Cl
measure.unit: ng/mL
Cmax: 500

molecule: COCCN1CCN(c2ccc(C(=O)Nc3n[nH]c4nc(-c5c(Cl)c(OC)cc(OC)c5Cl)ccc34)cc2)CC1
measure.unit: ng/mL
Cmax: 1650
